- testedTarget: Suppressor of tumorigenicity 14 protein (Homo sapiens, UniProt Q9Y5Y6)
- Sequence (Q9Y5Y6 whole entry): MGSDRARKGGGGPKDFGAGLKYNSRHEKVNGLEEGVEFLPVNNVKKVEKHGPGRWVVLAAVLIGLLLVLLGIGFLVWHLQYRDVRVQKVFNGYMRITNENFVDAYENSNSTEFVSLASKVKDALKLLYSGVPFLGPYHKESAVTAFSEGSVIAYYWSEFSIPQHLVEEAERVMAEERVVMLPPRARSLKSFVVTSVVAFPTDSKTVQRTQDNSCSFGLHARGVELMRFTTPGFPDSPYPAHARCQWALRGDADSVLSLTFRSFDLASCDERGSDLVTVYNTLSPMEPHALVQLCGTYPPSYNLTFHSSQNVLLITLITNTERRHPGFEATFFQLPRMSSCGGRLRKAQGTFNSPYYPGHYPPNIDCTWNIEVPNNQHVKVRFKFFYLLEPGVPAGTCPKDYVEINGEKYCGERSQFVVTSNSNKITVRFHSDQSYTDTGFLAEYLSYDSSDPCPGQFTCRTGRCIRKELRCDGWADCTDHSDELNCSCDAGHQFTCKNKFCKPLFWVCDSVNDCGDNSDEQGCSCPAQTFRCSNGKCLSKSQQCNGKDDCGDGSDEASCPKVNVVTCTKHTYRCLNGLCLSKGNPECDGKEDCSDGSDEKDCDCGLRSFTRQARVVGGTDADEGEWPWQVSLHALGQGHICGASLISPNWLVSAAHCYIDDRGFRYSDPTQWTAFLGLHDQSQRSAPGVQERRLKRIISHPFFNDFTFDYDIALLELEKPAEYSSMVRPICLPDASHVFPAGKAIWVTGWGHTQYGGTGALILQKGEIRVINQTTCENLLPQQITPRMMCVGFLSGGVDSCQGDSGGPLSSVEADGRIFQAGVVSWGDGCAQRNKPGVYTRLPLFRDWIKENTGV
- testMethodNotes: Inhibition of human recombinant matriptase using Boc-Gln-Ala-Arg-AMC as substrate by microplate reader analysis
Listed below: Ki values for each entry.
testReadout: Ki (nM)

In [3]: df
Out[3]:
                                     smiles  obsvalue
0  N=C(N)NCCC[C@H](NC(=O)[C@H](Cc1ccccc1)NC(=O)[C@H](CCC(N)=O)NC(=O)[C@@H](N)CCCNC(=N)N)C(=O)c1nc2ccccc2s1      0.23
1  N=C(N)NCCC[C@H](NC(=O)[C@H](Cc1ccc(O)cc1)NC(=O)[C@H](CCC(N)=O)NC(=O)[C@@H](N)CCCNC(=N)N)C(=O)c1nc2ccccc2s1      0.18
2  C[C@H](NC(=O)[C@H](Cc1ccc(O)cc1)NC(=O)[C@@H](N)CCCNC(=N)N)C(=O)N[C@@H](CCCNC(=N)N)C(=O)c1nc2ccccc2s1      0.14

====

Listed below: log10 Ki values for each entry.
- testedTarget: Transmembrane protease serine 6 (Homo sapiens)
- Sequence (Q8IU80 whole entry): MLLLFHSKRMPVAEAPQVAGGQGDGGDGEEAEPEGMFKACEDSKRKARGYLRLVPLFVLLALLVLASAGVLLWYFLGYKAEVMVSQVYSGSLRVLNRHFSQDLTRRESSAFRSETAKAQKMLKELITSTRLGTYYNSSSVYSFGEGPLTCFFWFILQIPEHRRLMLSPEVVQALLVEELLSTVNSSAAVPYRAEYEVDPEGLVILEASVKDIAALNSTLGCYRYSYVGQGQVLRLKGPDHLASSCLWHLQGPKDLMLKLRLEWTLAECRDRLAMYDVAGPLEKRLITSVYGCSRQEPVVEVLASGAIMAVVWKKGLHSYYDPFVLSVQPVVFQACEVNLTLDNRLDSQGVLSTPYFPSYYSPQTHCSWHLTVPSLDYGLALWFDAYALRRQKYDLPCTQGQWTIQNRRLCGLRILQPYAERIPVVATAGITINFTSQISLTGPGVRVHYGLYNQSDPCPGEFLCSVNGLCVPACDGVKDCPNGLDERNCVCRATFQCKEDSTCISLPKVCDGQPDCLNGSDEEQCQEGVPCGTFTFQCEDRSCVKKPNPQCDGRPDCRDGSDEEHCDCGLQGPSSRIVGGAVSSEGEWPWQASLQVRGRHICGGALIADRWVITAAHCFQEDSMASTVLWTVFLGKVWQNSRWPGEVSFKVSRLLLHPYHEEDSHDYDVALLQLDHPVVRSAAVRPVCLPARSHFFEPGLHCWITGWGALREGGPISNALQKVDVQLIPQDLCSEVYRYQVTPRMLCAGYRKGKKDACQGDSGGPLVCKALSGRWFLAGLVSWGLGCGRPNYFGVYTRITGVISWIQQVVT
- testMethodNotes: Inhibition of human recombinant matriptase-2 using Boc-Gln-Ala-Arg-AMC as substrate by microplate reader analysis
testReadout: log10 Ki (log10 of the value in nM)

                                      smiles  testreadout  obsvalue
 0  C[C@H](NC(=O)[C@H](Cc1ccc(O)cc1)NC(=O)[C@@H](N)CCCNC(=N)N)C(=O)N[C@@H](CCCNC(=N)N)C(=O)c1nc2ccccc2s1     log10 Ki      0.80
 1  N=C(N)NCCC[C@H](NC(=O)[C@@H](N)Cc1c[nH]c2ccccc12)C(=O)N[C@@H](CCC(=O)O)C(=O)N[C@@H](CCCNC(=N)N)C(=O)c1nc2ccccc2s1     log10 Ki      1.67
 2  CC(C)[C@H](NC(=O)[C@H](Cc1ccc(O)cc1)NC(=O)[C@@H](N)Cc1ccc(O)cc1)C(=O)N[C@@H](CCCNC(=N)N)C(=O)c1nc2ccccc2s1     log10 Ki      0.41
 3  CC(C)C[C@H](NC(=O)[C@@H](N)CCCNC(=N)N)C(=O)N[C@@H](CO)C(=O)N[C@@H](CCCNC(=N)N)C(=O)c1nc2ccccc2s1     log10 Ki      0.39
 4  C[C@H](NC(=O)[C@H](CCC(N)=O)NC(=O)[C@@H](N)CO)C(=O)N[C@@H](CCCNC(=N)N)C(=O)c1nc2ccccc2s1     log10 Ki      1.54
 5  C[C@H](NC(=O)[C@H](CCCCN)NC(=O)[C@@H](N)Cc1ccc(O)cc1)C(=O)N[C@@H](CCCNC(=N)N)C(=O)c1nc2ccccc2s1     log10 Ki      1.32
 6  N=C(N)NCCC[C@H](NC(=O)[C@H](Cc1ccccc1)NC(=O)[C@H](CCC(N)=O)NC(=O)[C@@H](N)CCCNC(=N)N)C(=O)c1nc2ccccc2s1     log10 Ki      0.15
 7  C[C@H](NC(=O)[C@H](CCCNC(=N)N)NC(=O)[C@@H](N)CCCNC(=N)N)C(=O)N[C@@H](CCCNC(=N)N)C(=O)c1nc2ccccc2s1     log10 Ki      1.19
 8  CC(C)C[C@H](N)C(=O)N[C@@H](Cc1c[nH]c2ccccc12)C(=O)N[C@@H](Cc1c[nH]c2ccccc12)C(=O)N[C@@H](CCCNC(=N)N)C(=O)c1nc2ccccc2s1     log10 Ki      0.30
 9  N=C(N)NCCC[C@H](NC(=O)[C@@H]1CCCN1C(=O)[C@H](CCC(N)=O)NC(=O)[C@@H](N)CCCNC(=N)N)C(=O)c1nc2ccccc2s1     log10 Ki      0.89
10  N=C(N)NCCC[C@H](NC(=O)[C@H](Cc1ccc(O)cc1)NC(=O)[C@H](CCC(N)=O)NC(=O)[C@@H](N)CCCNC(=N)N)C(=O)c1nc2ccccc2s1     log10 Ki     -0.13
11  N=C(N)NCCC[C@H](NC(=O)[C@@H]1CCCN1C(=O)[C@H](CC(N)=O)NC(=O)[C@@H](N)CCCNC(=N)N)C(=O)c1nc2ccccc2s1     log10 Ki      1.68
12  CC(C)C[C@H](N)C(=O)N[C@@H](CCC(N)=O)C(=O)N[C@@H](C)C(=O)N[C@@H](CCCNC(=N)N)C(=O)c1nc2ccccc2s1     log10 Ki      1.13
13  C[C@H](NC(=O)[C@H](CC(N)=O)NC(=O)[C@@H](N)CCCCN)C(=O)N[C@@H](CCCNC(=N)N)C(=O)c1nc2ccccc2s1     log10 Ki      1.39
14  N=C(N)NCCC[C@H](NC(=O)[C@H](Cc1ccc(O)cc1)NC(=O)[C@H](CS)NC(=O)[C@@H](N)Cc1c[nH]c2ccccc12)C(=O)c1nc2ccccc2s1     log10 Ki      0.01
